Below: a set of entries, each annotated with reported log10 of IC50.
- Experimental target: 5-HT6 receptor (Homo sapiens (Human))
- Sequence (P50406 whole entry): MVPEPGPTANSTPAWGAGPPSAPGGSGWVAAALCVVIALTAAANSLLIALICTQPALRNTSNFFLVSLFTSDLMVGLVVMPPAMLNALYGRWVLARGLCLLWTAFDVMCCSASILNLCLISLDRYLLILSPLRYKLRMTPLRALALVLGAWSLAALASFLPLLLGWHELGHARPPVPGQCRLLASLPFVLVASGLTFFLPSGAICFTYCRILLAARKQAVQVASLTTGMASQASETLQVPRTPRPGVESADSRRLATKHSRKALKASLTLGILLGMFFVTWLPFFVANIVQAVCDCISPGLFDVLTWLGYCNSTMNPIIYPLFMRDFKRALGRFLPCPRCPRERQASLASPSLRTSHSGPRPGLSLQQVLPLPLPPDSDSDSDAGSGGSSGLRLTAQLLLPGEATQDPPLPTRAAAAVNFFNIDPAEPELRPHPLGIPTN
- Method: Functional assay: inhibition of serotonin-induced intracellular cAMP (LANCE cAMP) in HEK 293 cells expressing 5-HT6 receptor
- Type: cell-based
- Condition info: read-out: IC50 of serotonin 5-HT6 receptor inhibition in the setting of functional assay
Observation type: log10 of IC50 (log10 of the value in µM)

[
  {
    "Compound": "CSc1nn2c3c(c(C)nc2c1S(=O)(=O)c1ccccc1)CCCC3 [1.2(3)]",
    "Experimental target": "5-HT6 receptor (Homo sapiens (Human))",
    "Value": -1.49
  },
  {
    "Compound": "CSc1nn2c3c(cnc2c1S(=O)(=O)c1ccccc1)CCCC3 [1.2(1)]",
    "Experimental target": "5-HT6 receptor (Homo sapiens (Human))",
    "Value": -1.46
  },
  {
    "Compound": "CSc1nn2cc3c(nc2c1S(=O)(=O)c1ccccc1)CCCC3 [2(1)]",
    "Experimental target": "5-HT6 receptor (Homo sapiens (Human))",
    "Value": -0.32
  },
  {
    "Compound": "CSc1nn2c3c(cnc2c1S(=O)(=O)c1ccccc1)CCC3 [1.1(1)]",
    "Experimental target": "5-HT6 receptor (Homo sapiens (Human))",
    "Value": -1.57
  },
  {
    "Compound": "CSc1nn2c(C)c3c(nc2c1S(=O)(=O)c1ccccc1)CCCC3 [2(2)]",
    "Experimental target": "5-HT6 receptor (Homo sapiens (Human))",
    "Value": -2.11
  }
]

---

Below: a set of entries, each annotated with reported IC50.
- Experimental target: 5-HT6 receptor (Homo sapiens (Human))
- Method: Competitive radioligand binding ([3H] Lysergic acid diethylamide) to membranes of HeLa cells expressing 5-HT6 receptor
- Condition info: 1.5 nM [3H] Lysergic acid diethylamide, HeLa cell membranes; read-out: IC50 of serotonin 5-HT6 receptor inhibition in the setting of competitive binding

[
  {
    "Chemical smiles": "CSc1nn2cc3c(nc2c1S(=O)(=O)c1ccccc1)CCCC3",
    "Unit abbrev": "nM",
    "IC50": 17.2
  },
  {
    "Chemical smiles": "CSc1nn2c3c(c(C)nc2c1S(=O)(=O)c1ccccc1)CCCC3",
    "Unit abbrev": "nM",
    "IC50": 0.948
  },
  {
    "Chemical smiles": "CSc1nn2c3c(cnc2c1S(=O)(=O)c1ccccc1)CCCC3",
    "Unit abbrev": "nM",
    "IC50": 1.18
  },
  {
    "Chemical smiles": "CSc1nn2c3c(cnc2c1S(=O)(=O)c1ccccc1)CCC3",
    "Unit abbrev": "nM",
    "IC50": 0.986
  },
  {
    "Chemical smiles": "CSc1nn2c(C)c3c(nc2c1S(=O)(=O)c1ccccc1)CCCC3",
    "Unit abbrev": "nM",
    "IC50": 1.46
  }
]

---

The compounds below have reported Ki for 5-HT6 receptor (Homo sapiens (Human)).

[
  {
    "Compound": "CSc1nn2c(C)c3c(nc2c1S(=O)(=O)c1ccccc1)CCCC3 [2(2)]",
    "Ki": "0.68 nM"
  },
  {
    "Compound": "CSc1nn2cc3c(nc2c1S(=O)(=O)c1ccccc1)CCCC3 [2(1)]",
    "Ki": "7.97 nM"
  },
  {
    "Compound": "CSc1nn2c3c(cnc2c1S(=O)(=O)c1ccccc1)CCC3 [1.1(1)]",
    "Ki": "0.458 nM"
  }
]

Each recorded value in this set is attributed to patent US8629154B2.
